// reported melting point for each item listed

Solved entries (count: 5):
Cc1oc(-c2ccccc2)nc1/C=C/c1ccc(C=O)cc1: 158 to 159 °C
O=[N+]([O-])c1cccc2c1OC(CO)C2 (centres undefined): 63 to 65 °C
Cc1cc(C(C)(C)c2ccc(O)cc2)ccc1O: 112 to 113 °C
Nc1c(C(=O)c2cccnc2)[nH]c2cc(Cl)ccc12: 188 to 189 °C
Cc1cc(C)c2c(c1)-c1cc(Br)c(C)cc1P(=O)(O)O2: 260 °C

q: So what does the record say about melting point for [N-]=[N+]=NCC(O)COc1ccc(-c2ccccc2)cc1 (centres undefined) ?
a: 72.2 to 73.9 °C

q: Nc1nc2cc(Cl)c(Cl)cc2nc1Br , same question.
a: 232 to 234 °C

q: Thanks! And CCc1cc(=O)c2c([nH]1)CCCN2 ?
a: 206 to 209 °C

q: How about this compound: COC1(c2cccc(OCc3ccc(-n4cnc(C)c4)cc3)c2)CCOCC1
a: 120 to 121 °C

q: Param item: CC(C(=O)N(C)C)n1ccc(-c2c(Cl)cccc2Cl)n1 (centres undefined)
a: 88 to 90 °C

q: Now give it for Cc1cc(Cl)cc(C(=O)NCC2CC2)c1NC(=O)c1cc(Br)nn1-c1ncccc1Cl too.
a: 166 to 168 °C

q: Follow-up entry: Cn1nc(-c2c(F)cccc2Cl)nc1-c1cc(-c2ccc(OC(F)(F)F)cc2)sc1Br
a: 135 to 136 °C

q: What do you have for c1ccc(COc2ccc3c(c2)N=C(NCc2cccnc2)c2ccccc2N3)cc1 ?
a: 196 to 197 °C

q: And what about the compound O=C(O)C1=Cc2cc(C(=O)c3ccccc3)ccc2OC1C(F)(F)F (centres undefined) ?
a: 270 to 271 °C

q: Item: CCCCCc1ccc(C(=O)CCCCC(=O)O)cc1
a: 84 to 86 °C

q: And what about the compound C=C(c1ccccc1OC)c1ccccc1OC ?
a: 88 to 90 °C

q: Now the same for COC(=O)c1ccccc1-c1cc(-c2ccc(Cl)cc2Cl)no1
a: 94 to 96 °C

q: Thanks! And CCc1cncc(-c2nc(C(=O)N(C)C)c3c4ccc(Cl)cc4n(C)c3n2)c1 ?
a: 218 to 219 °C

q: Lookup CC(=O)c1c(C)[nH]c(-c2ccccc2C)c1N
a: 258 °C

q: Next: CC[C@H](C)Nc1cc(C(=O)OC)cc(NS(C)(=O)=O)n1
a: 119 to 123 °C

q: Field entry: N#CC1=C(C2CC2)Nc2n[nH]cc2C1c1cccc(C#N)c1Br (centres undefined)
a: > 250 °C

q: Please do the same for CCCCCCN(C(=O)C(C)C)c1sc(CC)cc1C(=O)O as well.
a: 98 to 101 °C

q: What do you get for CC(=NO)C(C)(C)COc1ccc(F)cc1 ?
a: 65 to 66 °C

q: Here is the next compound: CCCc1nc2c(N)nc3ccccc3c2n1CC1(O)CCCCC1
a: 250 to 252 °C

q: Now the same for c1ccc2sc(SSN3CCOCC3)nc2c1
a: 132 to 136 °C

q: And for Cc1cc(S)n2nc(C(=O)O)nc2n1 ?
a: 215 to 217 °C

q: Moving on to the next compound: OC1(c2ccc3c(c2)OCO3)CCN(CC=Cc2ccccc2)CC1
a: 114 to 115 °C

q: And what about the compound COC(=O)C1C(=O)N(C)C(=O)c2ccc(Cl)cc21 (centres undefined) ?
a: 166 to 167 °C
